target: human mGluR5 (Homo sapiens, UniProt P41594); construct: expressed in transfected cells; host or cells: HEK293 cells stably expressing rat GLAST (EAAT1), stably transfected with pcDNAzeo3.1 carrying synthetic human mGluR5 DNA; zeocin-selected single clones; assay: In vitro cell-based FLIPR calcium assay for positive modulation of the activation of mGluR5 by glutamate (PAM EC50); settings: HEK293/GLAST cells expressing recombinant human mGluR5; FLIPR calcium signal; glutamate added at its EC20; read-out: mGluR5 PAM EC50
Sequence (P41594 21-1212): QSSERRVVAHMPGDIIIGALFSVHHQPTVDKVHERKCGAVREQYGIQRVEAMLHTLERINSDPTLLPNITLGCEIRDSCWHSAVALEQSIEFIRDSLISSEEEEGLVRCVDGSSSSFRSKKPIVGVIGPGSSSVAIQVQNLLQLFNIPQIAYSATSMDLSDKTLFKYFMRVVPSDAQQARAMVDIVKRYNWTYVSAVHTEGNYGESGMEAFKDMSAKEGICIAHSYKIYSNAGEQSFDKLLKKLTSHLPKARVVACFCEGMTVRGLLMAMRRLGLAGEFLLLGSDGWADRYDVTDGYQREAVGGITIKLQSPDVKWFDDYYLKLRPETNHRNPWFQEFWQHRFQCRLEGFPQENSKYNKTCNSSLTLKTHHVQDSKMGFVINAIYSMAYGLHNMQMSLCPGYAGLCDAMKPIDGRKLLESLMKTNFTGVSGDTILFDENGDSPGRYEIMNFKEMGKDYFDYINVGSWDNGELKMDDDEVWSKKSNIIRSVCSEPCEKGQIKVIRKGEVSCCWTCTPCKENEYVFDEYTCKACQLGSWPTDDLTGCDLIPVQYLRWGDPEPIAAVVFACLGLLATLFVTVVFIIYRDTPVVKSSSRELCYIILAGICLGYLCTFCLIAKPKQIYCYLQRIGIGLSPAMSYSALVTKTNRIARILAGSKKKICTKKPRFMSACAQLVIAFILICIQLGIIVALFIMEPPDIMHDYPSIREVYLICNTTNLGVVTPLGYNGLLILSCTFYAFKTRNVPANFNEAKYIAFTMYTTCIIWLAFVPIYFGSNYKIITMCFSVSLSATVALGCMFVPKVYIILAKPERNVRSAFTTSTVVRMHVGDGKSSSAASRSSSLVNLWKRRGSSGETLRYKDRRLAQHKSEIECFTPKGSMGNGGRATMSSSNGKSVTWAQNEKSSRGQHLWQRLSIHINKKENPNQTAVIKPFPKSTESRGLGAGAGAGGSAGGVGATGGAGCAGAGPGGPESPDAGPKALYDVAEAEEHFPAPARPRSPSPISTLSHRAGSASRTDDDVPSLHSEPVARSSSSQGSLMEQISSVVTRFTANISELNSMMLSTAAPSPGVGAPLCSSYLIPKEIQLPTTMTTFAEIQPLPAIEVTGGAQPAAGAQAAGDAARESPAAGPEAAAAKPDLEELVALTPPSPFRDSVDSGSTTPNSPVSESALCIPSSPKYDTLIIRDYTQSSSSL
pEC50: −log10 of the molar value.
property-name: pEC50

Sample records with pEC50:
# molecule, pEC50
rows = [
    ("CC1CCc2nc3cc(C#Cc4ccccn4)cnc3c(=O)n2CC1 (single isomer, unassigned) [11.9a/11.9b faster moving enantiomer (fraction 1)]", "7.00 to 7.52"),
    ("COC1CCc2nc3cc(C#Cc4cccc(F)c4)ccc3c(=O)n2CC1 (stereo not shown)", "> 8.00"),
    ("Cn1c(C2CCOC2)nc2cc(C#Cc3cccc(F)c3)ccc2c1=O (stereo not shown)", "6.00 to 6.52"),
]

Turning now to a further molecule:
Could you share which pEC50 value was measured for O=c1c2ccc(C#Cc3ccccn3)cc2nc2n1CCC(O)CC2 (stereo not shown) ?
7.00 to 7.52

====

molecular target: human mGluR5 (Homo sapiens); construct: expressed in transfected cells; host or cells: HEK293 cells stably expressing rat GLAST (EAAT1), stably transfected with pcDNAzeo3.1 carrying synthetic human mGluR5 DNA; zeocin-selected single clones; assay: In vitro cell-based FLIPR calcium assay for positive modulation of the activation of mGluR5 by glutamate (PAM EC50); conditions: HEK293/GLAST cells expressing recombinant human mGluR5; FLIPR calcium signal; glutamate added at its EC20; read-out: mGluR5 PAM EC50
property-name: EC50

# compound, measured-result
measured = [
    ("COCc1nc2cc(C#Cc3cccc(F)c3)ccc2c(=O)n1C", "10 to 30 nM"),
    ("CNC(=O)CN1CCc2nc3cc(C#Cc4cccc(F)c4)ccc3c(=O)n2CC1", "100 to 300 nM"),
    ("COCCN1CCn2c(nc3cc(C#Cc4cccc(F)c4)ccc3c2=O)C1", "100 to 300 nM"),
    ("O=c1c2ccc(C#CC3CCCC3)cc2nc2n1CCC1(CC2)OCCO1", "300 to 1000 nM"),
    ("CC(C)Cc1nc2cc(C#Cc3cccc(F)c3)ccc2c(=O)n1C", "30 to 100 nM"),
]

Using the record for COC1CCc2nc3cc(C#Cc4cccc(F)c4)ccc3c(=O)n2C1 (stereo not shown) , report its EC50.
< 10 nM

One more compound: O=C1CCc2nc3cc(C#Cc4cccc(F)c4)ccc3c(=O)n2C1
30 to 100 nM

Another compound to look at: CC1(C)CCc2nc3cc(C#Cc4ccccn4)ccc3c(=O)n2C1
< 10 nM

Now the same for O=c1c2ncc(C#Cc3ccccn3)cc2nc2n1CCCCC2
100 to 300 nM

Entry to check: O=c1c2ccc(C#Cc3ccccn3)cc2nc2n1C1CCC2CC1
< 10 nM

Next up: CC1(C)CCCc2nc3cc(C#Cc4ccccn4)ccc3c(=O)n2C1
10 to 30 nM

Same question for CC1CCn2c(nc3cc(C#Cc4ccccn4)ccc3c2=O)C1 (stereo not shown) please.
30 to 100 nM

Would you kindly repeat that for O=c1c2ccc(C#Cc3ccccn3)cc2nc2n1CC1CCCCN1CC2 (stereo not shown) ?
100 to 300 nM

Measured values drawn from patent US10077243B2 for this set.
